Numbers sourced from PubChem BioAssay (NCI).

system: HCT-116 colon; assay: NCI tumour cell line growth inhibition, 48 h
assayMetric: TGI

Reference set, count: 4
givenSmiles: CCN(CC)c1ncnc2c1ncn2CCNC(CO)(CO)CO
assayMetric: TGI
reading: > 100 µM
--
givenSmiles: CC1(C)[C@@H](Cn2nnc3c(N)ncnc32)CC[C@@]1(C)CO
assayMetric: TGI
reading: > 100 µM
--
givenSmiles: COC(=O)c1nc(-c2ccc(Cl)c(Cl)c2)nc2ccc(Cl)cc12
assayMetric: TGI
reading: > 100 µM
--
givenSmiles: COc1ccc(/C=C2\CS(=O)(=O)C/C(=C\c3ccc(OC)cc3)C2=O)cc1
assayMetric: TGI
reading: 1.43 µM

For reference, reported TGI for `COc1c(-c2nc3nc(N4CCN(C)CC4)ccc3[nH]2)cc(OC)c2c1nc(CO)n2C` stands at > 100 µM

====

system: OVCAR-8 ovarian; test: NCI tumour cell line growth inhibition, 48 h; in the data active = GI50 below about 0.43 µM; inactive = the rest
The categories you may choose from are TRUE = active, FALSE = inactive

Test call, this compound: CC(=O)OCC1OC(OC2CCCC[Si](c3ccccc3)(c3ccccc3)O2)C(OC(C)=O)C(OC(C)=O)C1OC(C)=O (configuration not stated)
FALSE

Test call, this compound: `COC(=O)[C@@H]1CCCN1C(=O)[C@@H]1CCCN1C(=O)[C@H](Cc1ccccc1)NC(=S)Nc1cc(C(F)(F)F)cc(C(F)(F)F)c1`
FALSE

Test call, this compound: `N#Cc1c(-c2ccccc2)n([O-])c2ccccc2[n+]1=O`
FALSE

Test call, this compound: `COc1ccc(-c2cnoc2-c2ccc(OC)cc2O)cc1`
FALSE

Test call, this compound: `COc1cccc(-n2ncc3c(N/N=C/c4ccc(F)cc4)ncnc32)c1`
FALSE

Test call, this compound: `CCOC(=O)c1ccc(NC(=O)Nc2nccs2)cc1`
TRUE

Test call, this compound: `COc1ccc(-c2cc3c(OC)c(OC)c(OC)cc3oc2=O)cc1`
FALSE

====

TGI listing for selected compounds.
tested on: A549 NSCLC; experiment: NCI tumour cell line growth inhibition, 48 h

compound: CC1(C)[C@@H](Cn2nnc3c(N)ncnc32)CC[C@@]1(C)CO
TGI: > 100 µM

A549 NSCLC data for `O=S(=O)(O)c1ccc2c(N=Nc3cccc4ccccc34)c(O)c(S(=O)(=O)O)cc2c1` ; its TGI: > 100 µM

A549 NSCLC data for CN(N=O)C(=O)N(N)CCCCC(NC(=O)OCc1ccccc1)C(=O)OCc1ccccc1 (centres undefined) ; its TGI: > 100 µM

A549 NSCLC data for `COc1cc(-c2cncn2-c2ccc(-c3nc4ccc(F)cc4s3)cc2)ccc1F` ; its TGI: > 100 µM

A549 NSCLC data for `Cn1cnc([N+](=O)[O-])c1Sc1nc2ncccc2[nH]1` ; its TGI: > 100 µM

A549 NSCLC data for `COc1cccc(NC(=O)CC(=O)Nc2cccc(OC)c2)c1` ; its TGI: > 100 µM

A549 NSCLC data for `CC[C@@]1(O)C(=O)OCc2c1cc1n(c2=O)Cc2cc3c([N+](=O)[O-])c(OC)ccc3nc2-1` ; its TGI: 2.61 µM

A549 NSCLC data for CC(=O)O[C@H]1CC2C(C3CC[C@H](C(C)CCC(N)=O)[C@]31C)[C@H](OC(C)=O)C[C@@H]1CC3(CC[C@]21C)OOC1(CCC(C)CC1)OO3 (some centres undefined) ; its TGI: 6.13 µM

A549 NSCLC data for `C/C=C(/C(=C/C)c1ccc(O)cc1)c1ccc(O)cc1` ; its TGI: 19 µM
